Reference source: ChEMBL document CHEMBL1201862

- Test system: SK-MEL-5
- assay-procedure: NCI tumour cell line growth inhibition, 48 h
The source made the active and inactive calls. Rule as the data show it: active = GI50 up to about 1.1 µM and inactive = higher.
Overview of recorded GI50 for various compounds

Would you please look over these solved cases?
# compound, GI50
rows = [
    ("NCC1OC(n2cnc3c(=O)[nH]c(N)nc32)C(O)C1O (stereo unspecified)", "> 100 µM (inactive)"),
    ("CCOC(=O)N1CCc2cc(OC)c(OC)cc2/C1=C/c1ccc(OC)c(OC)c1", "20.9 µM (inactive)"),
    ("CCCC(C)n1c(C)nc2c1C(=O)c1ccccc1C2=O (stereo unspecified)", "13.3 µM (inactive)"),
]

Look up GI50 of "O=C(/C=C/c1ccccc1)/C=C/c1ccccc1" and report it.
33.1 µM (inactive)

Look up GI50 of "CSc1nc(C)cc(Nc2ccc(O)c(CN3CCCCC3)c2)n1" and report it.
25.3 µM (inactive)

Look up GI50 of CC1CCC(C(C)(C)c2ccccc2)C(=O)C1 (stereo unspecified) and report it.
> 100 µM (inactive)

* * *

- Test system: SF-295
- assay-procedure: NCI tumour cell line growth inhibition, 48 h
The source made the active and inactive calls. Rule as the data show it: active = GI50 up to about 1.1 µM and inactive = higher.
Use one of these outcomes when replying: active, inactive

Observe how each entry below is paired with its result.
# compound, category-label
measured = [
    ("C[n+]1c2ccccc2c(N=[N+]=[N-])c2ccccc21", "inactive"),
    ("COc1cc2c3c(c1OC)/C(=N/OS(=O)(=O)c1ccc(C)cc1)CC3N(S(=O)(=O)c1ccc(C)cc1)CC2 (centres undefined)", "inactive"),
    ("O=C(N/N=C\\c1ccc([N+](=O)[O-])cc1)Nc1ccc2ccccc2c1", "inactive"),
    ("CCSc1nc(-c2cccs2)nc2ccc(I)cc12", "inactive"),
    ("CCOc1ccc(/C(C=O)=C(\\Cl)c2ccc(OC)c(OC)c2)cc1", "inactive"),
    ("CCNC(=O)C(O)C1(O)CCC2[C@@H]3CCC4=CC(=O)C=C[C@]4(C)C3[C@@H](O)C[C@@]21C (some centres undefined)", "inactive"),
    ("CCCC[P+](CCCC)(CCCC)C(C(=O)OC)C(C(=O)OC)=C1SC(C(=O)OC)=C(C(=O)OC)S1 (centres undefined)", "inactive"),
    ("O=C(OCCOCCOC(=O)c1c[nH]cc1-c1ccccc1)c1c[nH]cc1-c1ccccc1", "inactive"),
]

API: the following record is the query input.
Name the outcome recorded for CCOC(=O)C(C)c1c(C(=O)c2ccc(C)nc2)c2ccccc2n1C (centres undefined) in the assay.
inactive

* * *

- Tested on: UACC-62
- assay-procedure: NCI tumour cell line growth inhibition, 48 h
The source made the active and inactive calls. Rule as the data show it: active = GI50 up to about 1.1 µM and inactive = higher. Peptide text beside a SMILES is read from it.
reported-endpoint: GI50

Would you please look over these solved cases?
# compound, experimental-value
data = [
    ("O=C1c2cc3ccccc3cc2C2(c3ccc(Cl)cc3)N[C@H]3CCCC[C@@H]3N12 (some centres undefined)", "15 µM (inactive)"),
    ("Cc1cc(N(CCC#N)CCC#N)ccc1/N=N/c1ccc(S(N)(=O)=O)cc1", "> 100 µM (inactive)"),
    ("COc1ccccc1NC(=O)CC(=O)N1N=C(C)C(/N=N/c2ccc(S(N)(=O)=O)cc2)C1=O (centres undefined)", "> 100 µM (inactive)"),
    ("Cc1nc(-c2ccccc2)c(C)n2c1nc1ccccc12", "19.3 µM (inactive)"),
    ("COC(=O)[C@@H]1C[C@@]23CCCN4CC[C@@]5(c6cccc(OC)c6N(C=O)[C@]15CC2)[C@@H]43", "> 100 µM (inactive)"),
    ("CCC(C)C(NC(=O)C(NC(=O)C(CC(N)=O)NC(=O)CN)C(C)O)C(=O)NC(C(=O)NC(C)C(=O)NC(C(=O)NC(CCC(=O)O)C(=O)NC(CC(C)C)C(=O)NC(CC(=O)O)C(=O)NC(C(=O)NC(Cc1ccc(O)cc1)C(=O)N1CCCC1C(=O)O)C(C)O)C(C)C)C(C)C (centres undefined) (H-GNTIVAVELDTYP-OH; configuration not given here)", "> 50 µM (inactive)"),
]

Look up GI50 of "Cc1ccc2c(O)cc(-c3ccsc3)nc2n1" and report it.
4.61 µM (inactive)

Look up GI50 of "CC(C)c1[nH]nc(C(N)=O)c1/N=N/N(C)C" and report it.
67.9 µM (inactive)

Look up GI50 of COc1ccc2c(c1)N=C1CSC(c3cccc(Br)c3)N1C2 (centres undefined) and report it.
15.2 µM (inactive)
